Hello, the source for this data is the supplement of paper PMC9732359, in case you need it.

In this section we review reported protein stability index values for a set of sequences.
assay: protein stability index of a GFP-peptide fusion (yeast GPS) (PSI 1-4); higher = more stable; sorted into four equal gates, so the index is relative within each strain; details: pdr5∆

{"Polymer sequence": "TEQQIEVPEGVTVSIKS [RPL9A]", "protein stability index": 2.3}
{"Polymer sequence": "VNYNSDMIKCFLPKLNS [NUT1]", "protein stability index": 1.98}
{"Polymer sequence": "REIQTAVRLILPGELAK [HTB1]", "protein stability index": 3.14}
{"Polymer sequence": "ARIIAAIPNPEDVVAIS [RPS0A]", "protein stability index": 2.14}
{"Polymer sequence": "GKPHFSLLGGFDENIAR [PCI8]", "protein stability index": 2.91}

Entry VTYALSGYVRSRGESDD [RPS21A] , protein stability index reported as 3.07

Entry VKLWEEDPDQEECSGRR [YGL100W/SEH1] , protein stability index reported as 3.08

----------
test: protein stability index of a GFP-peptide fusion (yeast GPS) (PSI 1-4); higher = more stable; sorted into four equal gates, so the index is relative within each strain; conditions: san1∆
Hi all, reminder that labels come from protein stability index, split as low value: < 2; medium value: ≥ 2 and < 3; high value: ≥ 3

{"Polymer sequence": "PLQGIFHNAVFNSFRRF [QCR8]", "Class assignment": "medium value"}
{"Polymer sequence": "SLVALGIDPQDLKKLNL [CDC53]", "Class assignment": "medium value"}
{"Polymer sequence": "ELISFKERTKSLEHELK [YIL149C/MLP2]", "Class assignment": "medium value"}
{"Polymer sequence": "RDLKPSNLEKLLFINSS [YML103C/NUP188]", "Class assignment": "low value"}
{"Polymer sequence": "VNDSVISAPSMEDEILS [BRN1]", "Class assignment": "medium value"}

INPUT: Which class holds NELMRWPIVQKTYEPVL [RPN5] ?
OUTPUT: medium value

INPUT: Which class holds ETLAYNSLKETLQDFHL [SNF2] ?
OUTPUT: medium value

INPUT: Which class holds EIGITQQRIVSAYEASM [RRP4] ?
OUTPUT: medium value

INPUT: Which class holds NFGNNGAGGLNPFTSAT [YOR098C/NUP1] ?
OUTPUT: high value

INPUT: Which class holds QKMAELEAARSEKQNDE [PRP8] ?
OUTPUT: medium value

INPUT: Which class holds EIVDTYQEDIFVSESPS [ISW2] ?
OUTPUT: high value

INPUT: Which class holds VHLSNGYKMIPGAKPLQ [FAS1] ?
OUTPUT: low value

----------
In this section we review reported protein stability index values for a set of sequences.
assay: protein stability index of a GFP-peptide fusion (yeast GPS) (PSI 1-4); higher = more stable; sorted into four equal gates, so the index is relative within each strain; conditions: ubr1∆

Completed entries (count: 8):
{"Polymer sequence": "TDAGVLALKLELLDFLT [YJL039C/NUP192]", "protein stability index": 3.02}
{"Polymer sequence": "GSRVLIFSQMSRLLDIL [ISW2]", "protein stability index": 3.58}
{"Polymer sequence": "QGIIYAKVNRPAKIVNF [RPN5]", "protein stability index": 2.4}
{"Polymer sequence": "SYYGIVCLMQISTRERD [RRP6]", "protein stability index": 1.39}
{"Polymer sequence": "ITLVEPEILRFKVYEPL [RPS16A]", "protein stability index": 2.75}
{"Polymer sequence": "MADLQKQENSSRFTNVS [YMR153W/NUP53]", "protein stability index": 3.31}
{"Polymer sequence": "DGRSFDQFRDVEITFGK [RRP45]", "protein stability index": 3.21}
{"Polymer sequence": "EASKKSAVKPRPLKLER [FAS1]", "protein stability index": 3.05}

Entry RGYTCQFVDMVLPNTAL [FAS1] , protein stability index reported as 1.53

Entry VQKRDEVKEQLGILKKK [SMC4] , protein stability index reported as 2.78

Entry FHSEPDRDENWIHVSCL [LIN1] , protein stability index reported as 3.13

Entry SQKHNGRILKWLWPLCR [CDC53] , protein stability index reported as 1.12

Entry KPELRKKVMPAIVVRQA [RPL23A] , protein stability index reported as 2.97

Entry MIQKVMEYLKSSKSLDL [RPN5] , protein stability index reported as 2.46

Entry LLNDECTESTRENALYD [SNF2] , protein stability index reported as 3.69

Entry FPNIAIRPTELRLPFSA [PRP8] , protein stability index reported as 2.23

Entry ANCQRQLTEFWTELCQR [NNF1] , protein stability index reported as 2.82

Entry MLWNLAAKKAMYTLSAQ [ASC1] , protein stability index reported as 2.18

Entry KKLDYVLALKVEDFLER [RPS9A] , protein stability index reported as 2.72

Entry VAALKAVGAHSDLLKVL [RPL4A] , protein stability index reported as 2.83

Entry PRKLVLSSGENRYAFSQ [SMC4] , protein stability index reported as 1.59

Entry GDIVRMLETAGFSMNNP [SMC3] , protein stability index reported as 3.16

----------
test: protein stability index of a GFP-peptide fusion (yeast GPS) (PSI 1-4); higher = more stable; sorted into four equal gates, so the index is relative within each strain; details: pdr5∆
Use 1 (yes) when the recorded protein stability index is no lower than 3; use 0 (no) when it is lower.

{"Polymer sequence": "VKESNNYYSNKSNSTGN [REC8]", "Class assignment": "0 (no)"}

INPUT: Threshold query (protein stability index >= 3) on YVKDARKDTVSREVLRY [RPC40]
OUTPUT: 1 (yes)

----------
assay: protein stability index of a GFP-peptide fusion (yeast GPS) (PSI 1-4); higher = more stable; sorted into four equal gates, so the index is relative within each strain; details: doa10∆
Reported property: protein stability index
// no unit, no text: just the number

Completed entries (count: 3):
{"Polymer sequence": "SIGRTAQGKEFGVTKAR [RPL17A]", "protein stability index": 3.28}
{"Polymer sequence": "IQQLISQFLKRVHANLQ [SNF11]", "protein stability index": 1.63}
{"Polymer sequence": "TIYYVDSDGTRLKGDIF [PRE2]", "protein stability index": 3.24}

Entry DAYYDLELRNSVMDDIL [PRP8] , protein stability index reported as 2.98

Entry NSADAAYAQVEIQPRAN [FAS2] , protein stability index reported as 2.82

Entry DKNELQQMIITRLKSLL [SIR3] , protein stability index reported as 2.23

Entry GLTLSTTNLDIDLLTFQ [RPP1] , protein stability index reported as 2.94

Entry MKYLAAYLLLVQGGNAA [RPP2B] , protein stability index reported as 1.53

Entry LPIESQFVSKLVDNLNA [BRR2] , protein stability index reported as 2.32

Entry PNISHSNIDYQTLLANS [SNF2] , protein stability index reported as 3.33

Entry PTPAASAPAPAAAAPAP [FAS2] , protein stability index reported as 2.95

Entry SMINSVSPTNVMGTPLT [PGD1] , protein stability index reported as 2.8

Entry STFTKHLIKCFFKITLQ [ITC1] , protein stability index reported as 1.43

Entry KLYTKELSVTGSAINHH [YMR129W/POM152] , protein stability index reported as 1.22

Entry LRRIITDLNQDSAAIIA [GRR1] , protein stability index reported as 2.64

Entry AAGSYYVEAQHKLVFVV [RPL7A] , protein stability index reported as 2.33

----------
assay: protein stability index of a GFP-peptide fusion (yeast GPS) (PSI 1-4); higher = more stable; sorted into four equal gates, so the index is relative within each strain; conditions: ubr1∆
In this section we review reported protein stability index values for a set of sequences.
// no unit, no text: just the number

Completed entries (count: 5):
{"Polymer sequence": "SKEWFQLDDEDFDLLNK [FAS1]", "protein stability index": 3.06}
{"Polymer sequence": "RNRDIALFQPPNFDWDL [ROX3]", "protein stability index": 2.98}
{"Polymer sequence": "FSKGDADVLVDRVVSSD [SRP72]", "protein stability index": 3.04}
{"Polymer sequence": "YMDKAKQYDNRITKSNE [LRP1]", "protein stability index": 2.94}
{"Polymer sequence": "SSFKEDCLSFAPTLSQT [SSN2]", "protein stability index": 2.91}

Lab note: next sequence to report on.
Entry LSLHENYPQDEINAVFN [POP1] , protein stability index reported as 3

----------
assay: protein stability index of a GFP-peptide fusion (yeast GPS) (PSI 1-4); higher = more stable; sorted into four equal gates, so the index is relative within each strain; settings: doa10∆
Use True when the recorded protein stability index is no lower than 3; use False when it is lower.

INPUT: Threshold query (protein stability index >= 3) on LNLDSLLVDQKQLNSLR [SMD1]
OUTPUT: False

INPUT: Threshold query (protein stability index >= 3) on GSRVLIFSQMSRLLDIL [ISW2]
OUTPUT: True

INPUT: Threshold query (protein stability index >= 3) on TLKNRGLPLGIAEEKMW [YGR119C/NUP57]
OUTPUT: False

INPUT: Threshold query (protein stability index >= 3) on QRRVLLSAPLSKELRAQ [RPL26A]
OUTPUT: False

INPUT: Threshold query (protein stability index >= 3) on PAMAMEDLKNFIFQIIE [SRB8]
OUTPUT: False
